Molecular target: MMP-13h (Homo sapiens (Human))
Test: Inhibition constant (Ki) on MMP-13h
Type: biochemical
Conditions: human MMP-13
Please go through the items and note down their log10 of Ki.
Field: value | Transform: log10 | Quantity: Ki | Unit: nM

molecule	study_system	numeric_result
NC(=O)[C@H](CCCC(=O)O)NC(=O)[C@H](CCCC(=O)O)NC(=O)CCc1cc(-c2ccc(-c3cccc(Cl)c3)cc2)no1 [Compound 13]	MMP-13h (Homo sapiens (Human))	1.96
NC(=O)CC[C@H](NC(=O)CCc1ccc(-c2ccc(-c3ccccc3)cc2)cc1)C(=O)N[C@@H](CCC(=O)O)C(N)=O [Compound 72]	MMP-13h (Homo sapiens (Human))	2.26
NC(=O)[C@H](CCC(=O)O)NC(=O)[C@H](CCC(=O)O)NC(=O)CCc1ccc(-c2ccsc2)cc1 [Compound 38]	MMP-13h (Homo sapiens (Human))	2.73
NC(=O)[C@H](CCC(=O)O)NC(=O)[C@H](CCC(=O)O)NC(=O)CCc1ccc(-c2cccc([N+](=O)[O-])c2)cc1 [Compound 55]	MMP-13h (Homo sapiens (Human))	2.64
NC(=O)CC[C@H](NC(=O)[C@H](CCC(=O)O)NC(=O)CCc1ccc(-c2ccccc2)cc1)C(N)=O [Compound 42]	MMP-13h (Homo sapiens (Human))	2.95

Provide the reported log10 of Ki of each entry below, same order.
1. NC(=O)[C@H](CCC(=O)O)NC(=O)[C@H](CCCC(=O)O)NC(=O)CCc1cc(-c2ccc(-c3cccc(Cl)c3)cc2)no1 [Compound 11]
2. NC(=O)[C@H](CC(=O)O)NC(=O)[C@H](CCC(=O)O)NC(=O)CCc1cc(-c2ccc(-c3ccccc3)cc2)no1 [Compound 18]

Return:
[2.28, 1.48]

Provide the reported log10 of Ki of each entry below, same order.
1. NC(=O)[C@H](CCC(=O)O)NC(=O)[C@H](CCCC(=O)O)NC(=O)CCc1ccc(-c2cc(-c3ccccc3)cs2)cc1 [Compound 102]
2. NC(=O)[C@H](CCC(=O)O)NC(=O)[C@H](CCC(=O)O)NC(=O)CCc1cc(-c2ccc(-c3ccccc3)cc2)no1 [Compound 16]
3. NC(=O)[C@H](CCC(=O)O)NC(=O)[C@H](CCC(=O)O)NC(=O)CCc1ccc(-c2nc3ccccc3s2)cc1 [Compound 39]
4. NC(=O)[C@H](CCC(=O)O)NC(=O)[C@H](CCC(=O)O)NC(=O)CCc1ccc(-c2ccccc2)cc1 [Compound 40]

Return:
1: 2.80; 2: 1.78; 3: 2.13; 4: 2.84

Provide the reported log10 of Ki of each entry below, same order.
1. NC(=O)[C@H](CCC(=O)O)NC(=O)[C@H](CCC(=O)O)NC(=O)CCc1ccc(-c2csnn2)cc1 [Compound 35]
2. NC(=O)[C@H](CCC(=O)O)NC(=O)[C@H](CCC(=O)O)NC(=O)CCc1ccc(-c2nccs2)cc1 [Compound 37]

Return:
1. 2.33
2. 2.38

---

Please go through the items and note down their Ki.
Biological target: MMP-14h (Homo sapiens (Human))
Assay: Inhibition constant (Ki) on MMP-14h
Type: biochemical
Conditions: read-out: Ki MMP-14h; human MMP-14

Would you please look over these solved cases?
C[C@H](NC(=O)[C@H](CCC(=O)O)NC(=O)CCc1ccc(-c2cccs2)cc1)C(N)=O > 1 µM
NC(=O)[C@H](CCC(=O)O)NC(=O)[C@H](Cc1c[nH]cn1)NC(=O)CCc1ccc(-c2ccc(-c3ccccc3)cc2)cc1 > 10 µM
NC(=O)[C@H](CCC(=O)O)NC(=O)[C@H](CCC(=O)O)NC(=O)CCc1ccc(-c2cccc(CO)c2)cc1 > 10 µM
NC(=O)CC[C@H](NC(=O)[C@H](CCC(N)=O)NC(=O)CCc1cc(-c2ccc(-c3ccccc3)cc2)no1)C(N)=O > 10 µM
NC(=O)CC[C@H](NC(=O)CCc1cc(-c2ccc(-c3ccccc3)cc2)no1)C(=O)N[C@@H](CCC(=O)O)C(N)=O > 10 µM
NC(=O)[C@H](CCC(=O)O)NC(=O)[C@H](CCC(=O)O)NC(=O)CCc1ccc(-c2ccc(-c3ccccc3)cc2)cc1 > 1 µM

Provide the reported Ki of each entry below, same order.
1. C[C@H](NC(=O)CCc1ccc(-c2ccc(-c3ccccc3)cc2)cc1)C(=O)N[C@@H](CCC(=O)O)C(N)=O
2. NC(=O)[C@H](CCC(=O)O)NC(=O)CCc1cc(-c2ccccc2)no1
3. Cc1csc(-c2ccc(CCC(=O)N[C@@H](CCC(=O)O)C(=O)N[C@@H](CCC(=O)O)C(N)=O)cc2)c1
4. C[C@H](NC(=O)[C@H](CCC(=O)O)NC(=O)CCc1ccc(-c2ccc(-c3ccccc3)cc2)cc1)C(N)=O
5. NCCCC[C@H](NC(=O)[C@H](CCC(=O)O)NC(=O)CCc1ccc(-c2cccs2)cc1)C(N)=O
6. NC(=O)[C@H](CCC(=O)O)NC(=O)[C@H](CCC(=O)O)NC(=O)CCc1ccc(-c2ccc(-c3nc4ccccc4s3)s2)cc1
7. Cc1ccc(-c2ccc(CCC(=O)N[C@@H](CCC(=O)O)C(=O)N[C@@H](CCC(=O)O)C(N)=O)cc2)s1
8. NC(=O)[C@H](CC(=O)O)NC(=O)[C@H](CCC(=O)O)NC(=O)CCc1ccc(-c2cccs2)cc1

Return:
> 5 µM
> 1 µM
> 10 µM
> 10 µM
> 1 µM
> 5 µM
> 1 µM
> 1 µM
